Target: BSEP (Homo sapiens (Human), UniProt O95342)
Sequence (O95342 whole entry): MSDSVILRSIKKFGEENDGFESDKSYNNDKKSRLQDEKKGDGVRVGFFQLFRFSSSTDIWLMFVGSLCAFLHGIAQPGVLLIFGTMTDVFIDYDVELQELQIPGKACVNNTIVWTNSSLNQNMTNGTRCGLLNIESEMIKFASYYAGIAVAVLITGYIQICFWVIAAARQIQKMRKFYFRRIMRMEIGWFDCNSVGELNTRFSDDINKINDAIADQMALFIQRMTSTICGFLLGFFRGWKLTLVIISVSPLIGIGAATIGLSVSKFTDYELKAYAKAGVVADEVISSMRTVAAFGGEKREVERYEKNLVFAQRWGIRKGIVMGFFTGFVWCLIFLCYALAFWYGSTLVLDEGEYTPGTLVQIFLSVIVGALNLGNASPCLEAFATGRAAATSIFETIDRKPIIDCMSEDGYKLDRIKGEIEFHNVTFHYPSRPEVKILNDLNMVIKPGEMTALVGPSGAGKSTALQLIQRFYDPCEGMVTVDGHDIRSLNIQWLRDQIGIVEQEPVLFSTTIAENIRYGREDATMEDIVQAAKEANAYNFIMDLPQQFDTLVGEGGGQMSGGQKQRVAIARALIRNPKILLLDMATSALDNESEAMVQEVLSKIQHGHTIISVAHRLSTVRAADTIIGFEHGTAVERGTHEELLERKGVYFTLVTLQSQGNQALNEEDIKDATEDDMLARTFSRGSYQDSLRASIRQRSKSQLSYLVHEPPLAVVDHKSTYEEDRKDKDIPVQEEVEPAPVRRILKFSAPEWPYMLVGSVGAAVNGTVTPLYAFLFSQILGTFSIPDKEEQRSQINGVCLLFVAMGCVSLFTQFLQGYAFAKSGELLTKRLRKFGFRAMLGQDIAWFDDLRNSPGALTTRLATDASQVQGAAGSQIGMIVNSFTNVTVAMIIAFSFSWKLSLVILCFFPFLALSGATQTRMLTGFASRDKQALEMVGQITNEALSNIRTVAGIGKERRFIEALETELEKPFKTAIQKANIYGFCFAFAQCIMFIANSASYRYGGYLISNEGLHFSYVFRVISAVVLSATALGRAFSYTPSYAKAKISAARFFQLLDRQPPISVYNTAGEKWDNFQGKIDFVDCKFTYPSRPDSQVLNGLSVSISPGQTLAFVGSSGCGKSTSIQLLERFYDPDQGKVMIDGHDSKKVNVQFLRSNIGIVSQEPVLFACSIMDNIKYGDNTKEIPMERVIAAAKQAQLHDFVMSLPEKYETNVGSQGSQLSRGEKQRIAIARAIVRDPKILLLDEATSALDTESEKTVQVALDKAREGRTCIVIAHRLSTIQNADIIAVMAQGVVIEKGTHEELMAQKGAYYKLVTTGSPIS
Assay: BSEP inhibition: biliary clearance of Taurocolic Acid in sandwich-cultured human hepatocytes
Type: in vitro ADME
Details: sandwich-cultured cryopreserved human hepatocytes, probe Taurocolic Acid (TCA); 50 μM test compound, 10 μM TCA, human hepatocytes sandwich configuration
Protocol: BSEP inhibition was evaluated using human hepatocytes cultured between two layer of collagen (sandwich configuration). In this culture condition, hepatocytes express relevant transporters including BSEP and retain the bile canalicular structure. […] BSEP inhibition was evaluated using cryopreserved human hepatocytes (Plateable Cryopreserved Human Hepatocytes, BIOIVT) cultured for 5 day between two layer of collagen (sandwich configuration). […]
Readings of inhibition at 10 min, 50 μM for the listed compounds
metric: inhibition at 10 min, 50 μM

* Cc1noc(-c2ccc(NC(=O)[C@H]3CCCC[C@@H]3C(=O)O)cn2)c1NC(=O)O[C@H](C)c1ccccc1Cl | ≤ 50%
* Cc1noc(-c2ccc(NC(=O)[C@H]3CCCC[C@@H]3C(=O)O)cc2)c1NC(=O)O[C@H](C)c1ccccc1Cl [comparative Example A, reference compound] | > 70%
* Cc1nc(-c2onc(C)c2NC(=O)O[C@H](C)C2CCCC2)ccc1NC(=O)[C@H]1CCCC[C@@H]1C(=O)O | ≤ 50%

---

Measured pIC50, listed per entry for reference.
Target: human recombinant LPA1 expressed in CHO cells (Homo sapiens (Human), UniProt Q92633)
Sequence (Q92633 whole entry): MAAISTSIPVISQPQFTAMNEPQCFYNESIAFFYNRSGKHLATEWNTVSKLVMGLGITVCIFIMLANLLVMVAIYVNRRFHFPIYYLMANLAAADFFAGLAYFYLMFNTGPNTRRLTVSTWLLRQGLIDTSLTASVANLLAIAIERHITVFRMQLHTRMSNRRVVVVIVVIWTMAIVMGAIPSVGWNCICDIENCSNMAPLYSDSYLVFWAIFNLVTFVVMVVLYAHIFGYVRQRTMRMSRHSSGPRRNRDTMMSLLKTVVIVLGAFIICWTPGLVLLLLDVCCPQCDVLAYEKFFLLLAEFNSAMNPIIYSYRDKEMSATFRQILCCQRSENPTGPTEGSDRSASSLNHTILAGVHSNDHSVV
Assay: LPA1 antagonist FLIPR calcium assay in CHO-hLPA1 cells
Type: cell-based
Details: range of activity; CHO-hLPA1, LPA EC80, Ca2+ mobilization; read-out: LPA1 IC50
pIC50: −log10 of the molar value.
metric: pIC50

- Cc1nc(-c2nnn(C)c2NC(=O)O[C@H](C)C2CCCC2)ccc1NC(=O)[C@H]1CCCC[C@@H]1C(=O)O [Example 46]: 6.60 to 7.30
- Cc1noc(-c2ccc(NC(=O)[C@H]3CCCC[C@@H]3C(=O)O)cn2)c1NC(=O)O[C@H](C)c1ccccc1F [Example 34]: > 7.30
- Cc1noc(-c2ccc(N(C)C(=O)[C@H]3CCCC[C@@H]3C(=O)O)cn2)c1NC(=O)O[C@H](C)c1cccnc1Cl [Example 30]: 6.22 to 6.60
- Cc1noc(-c2ccc(NC(=O)[C@H]3CCCC[C@@H]3C(=O)O)cn2)c1NC(=O)OCc1ccccc1Cl [Example 35]: 6.60 to 7.30
- Cc1nc(-c2cnn(C)c2NC(=O)O[C@H](C)c2ccccc2F)ccc1NC(=O)[C@H]1CCCC[C@@H]1C(=O)O [Example 50]: 6.60 to 7.30
- Cc1nc(-c2onc(C)c2NC(=O)OC(C)c2cccnc2F)ccc1NC(=O)[C@H]1CCCC[C@@H]1C(=O)O (single isomer, unassigned) [Example 20]: 6.60 to 7.30
- COc1ccccc1[C@@H](C)OC(=O)Nc1c(C)noc1-c1ccc(NC(=O)[C@H]2CCCC[C@@H]2C(=O)O)c(C)n1 [Example 38]: 6.60 to 7.30
- Cc1noc(-c2ccc(NC(=O)[C@H]3CCCC[C@@H]3C(=O)O)cn2)c1NC(=O)OC(C)c1cccnc1F (single isomer, unassigned) [Example 18]: 6.60 to 7.30
- Cc1noc(-c2ccc(NC(=O)[C@H]3CCCC[C@@H]3C(=O)O)cn2)c1NC(=O)O[C@H](C)c1ccccc1C(F)(F)F [Example 36]: 6.60 to 7.30
- Cc1nc(-c2onc(C)c2NC(=O)O[C@H](C)C2CCCC2)ccc1NC(=O)[C@H]1CCCC[C@@H]1C(=O)O [Example 26]: > 7.30
- CCC[C@@H](C)OC(=O)Nc1c(-c2ccc(NC(=O)[C@H]3CCCC[C@@H]3C(=O)O)c(C)n2)nnn1C [Example 52]: 6.60 to 7.30
- Cc1nc(-c2onc(C)c2NC(=O)O[C@H](C)c2ccccc2C(F)(F)F)ccc1NC(=O)[C@H]1CCCC[C@@H]1C(=O)O [Example 25]: 6.60 to 7.30
- Cc1nc(-c2onc(C)c2NC(=O)O[C@H](C)c2cccnc2Cl)ccc1NC(=O)[C@H]1CCCC[C@@H]1C(=O)O [Example 11]: 6.60 to 7.30
- Cc1nc(-c2cnn(C)c2NC(=O)O[C@H](C)C2CCCC2)ccc1NC(=O)[C@H]1CCCC[C@@H]1C(=O)O [Example 51]: 6.22 to 6.60

---

Below is a list of entries, each paired with its recorded Papp at 120 min, 10 µM value.
Experiment: Permeability on Caco-2 cells monolayers
Format: in vitro ADME
Details: human, with Elacridar 10 µM (PgP inhibitor), Papp A>B with PgP inhibitor Elacridar, 10 μM compound, read-out: Passive Permeability
metric: Papp at 120 min, 10 µM

- Cc1noc(-c2ccc(NC(=O)[C@H]3CCCC[C@@H]3C(=O)O)cn2)c1NC(=O)O[C@H](C)c1ccccc1F [Example 34]: ≥ 1.5 ×10⁻⁶ cm/s
- Cc1nc(-c2onc(C)c2NC(=O)O[C@H](C)c2ccccc2)ccc1NC(=O)[C@H]1CCCC[C@@H]1C(=O)O [Example 27]: ≥ 1.5 ×10⁻⁶ cm/s
- C[C@@H](OC(=O)Nc1ccsc1-c1ccc(NC(=O)C2CCCCC2C(=O)O)cc1)c1ccccc1Cl (single isomer, unassigned) [Example 7]: ≥ 1.5 ×10⁻⁶ cm/s

---

Molecular target: human recombinant LPA1 expressed in CHO cells (Homo sapiens (Human))
Experiment: LPA1 antagonist FLIPR calcium assay in CHO-hLPA1 cells
Type: cell-based
Conditions: range of activity; CHO-hLPA1, LPA EC80, Ca2+ mobilization; read-out: LPA1 IC50
pIC50: −log10 of the molar value.
metric: pIC50

- COc1ccccc1[C@@H](C)OC(=O)Nc1c(C)noc1-c1ccc(NC(=O)[C@H]2CCCC[C@@H]2C(=O)O)cn1: 6.60 to 7.30
- Cc1nc(-c2nnn(C)c2NC(=O)O[C@H](C)c2ccccc2)ccc1NC(=O)[C@H]1CCCC[C@@H]1C(=O)O: > 7.30
- C[C@@H](OC(=O)Nc1c(-c2ccc(NC(=O)[C@H]3CCCC[C@@H]3C(=O)O)c(F)n2)nnn1C)c1ccccc1Cl: > 7.30
- Cc1noc(-c2ccc(NC(=O)C3CCCCC3C(=O)O)cn2)c1NC(=O)O[C@H](C)c1ccccc1 (stereo in doubt): 6.60 to 7.30
- C[C@@H](OC(=O)Nc1ccsc1-c1ccc(NC(=O)C2CCCCC2C(=O)O)cc1)c1ccccc1Cl (single isomer, unassigned) [Example 8]: 6.22 to 6.60
- C[C@@H](OC(=O)Nc1ccsc1-c1ccc(NC(=O)C2CCCCC2C(=O)O)cc1)c1ccccc1Cl (single isomer, unassigned) [Example 10]: > 7.30
- Cc1nc(-c2nnn(C)c2NC(=O)O[C@H](C)c2ccccc2C(F)(F)F)ccc1NC(=O)[C@H]1CCCC[C@@H]1C(=O)O: 6.60 to 7.30
- Cc1noc(-c2ccc(NC(=O)[C@H]3CCCC[C@@H]3C(=O)O)cn2)c1NC(=O)O[C@H](C)c1ccccc1: > 7.30
- Cc1nc(-c2nnn(C)c2NC(=O)O[C@H](C)c2ccccc2F)ccc1NC(=O)[C@H]1CCCC[C@@H]1C(=O)O: > 7.30
- C[C@@H](OC(=O)Nc1c(-c2ccc(NC(=O)C3CCCCC3C(=O)O)cc2)cnn1C)c1ccccc1Cl (single isomer, unassigned) [Example 5]: 6.22 to 6.60
- CCn1nnc(-c2ccc(NC(=O)[C@H]3CCCC[C@@H]3C(=O)O)c(C)n2)c1NC(=O)O[C@H](C)c1ccccc1Cl: > 7.30
- C[C@@H](OC(=O)Nc1c(-c2ccc(NC(=O)[C@H]3CCCC[C@@H]3C(=O)O)cc2)nnn1C)c1ccccc1Cl: > 7.30
- C[C@@H](OC(=O)Nc1ccsc1-c1ccc(NC(=O)C2CCCCC2C(=O)O)cc1)c1ccccc1Cl (stereo partly shown) [Example 6]: > 7.30

---

Target: human recombinant LPA1 expressed in CHO cells (Homo sapiens (Human), UniProt Q92633)
Assay: LPA1 antagonist FLIPR calcium assay in CHO-hLPA1 cells
Assay type: cell-based
Settings: range of activity; CHO-hLPA1, LPA EC80, Ca2+ mobilization; read-out: LPA1 IC50
metric: IC50

• C[C@@H](OC(=O)Nc1ccsc1-c1ccc(NC(=O)[C@H]2CCCC[C@@H]2C(=O)O)cn1)c1ccccc1Cl = 250 to 600 nM
• Cc1nc(-c2onc(C)c2NC(=O)OC(C)c2cccnc2F)ccc1NC(=O)[C@H]1CCCC[C@@H]1C(=O)O (stereo partly shown) [Example 19] = 50 to 250 nM
• Cc1noc(-c2ccc(NC(=O)[C@H]3CCCC[C@@H]3C(=O)O)cn2)c1NC(=O)O[C@H](C)c1cccnc1Cl = 50 to 250 nM
• C[C@@H](OC(=O)Nc1c(-c2ccc(NC(=O)C3CCCCC3C(=O)O)cc2)cnn1C)c1ccccc1Cl (single isomer, unassigned) [Example 4] = < 50 nM
• Cc1nc(-c2onc(C)c2NC(=O)O[C@H](C)c2ccccc2Br)ccc1NC(=O)[C@H]1CCCC[C@@H]1C(=O)O = < 50 nM
• Cc1nc(-c2cnn(C)c2NC(=O)O[C@H](C)c2ccccc2)ccc1NC(=O)[C@H]1CCCC[C@@H]1C(=O)O = 50 to 250 nM
• Cc1nc(-c2onc(C)c2NC(=O)O[C@H](C)c2cccnc2)ccc1NC(=O)C1CCCCC1C(=O)O (stereo partly shown) = 250 to 600 nM
